Target: RSV F protein of subtype A (strain A2) on recombinant mKate-RSV virus (Respiratory syncytial virus subtype A …, UniProt P03420 26-574)
Experiment: cell-based or functional assay
Quantity: Neut IC50 (µg/ml) subtype A

1. ADI-18916 (antibody, V domains shown, full-length IgG from yeast; also called Antibody Number 270; Ab # 270) VH: QVQLVQSGPEVKKPGESLTISCKGSGYDFSNNWIGWVRQMPGKGLEWMGIIYPGDSDTRYSPSFQGQVTLSVDKSISTAYLQWRSLKASDSGIYYCARQIGGLVCSSESCYFYGMDVWGQGTTVTVSS VL: DIRVTQSPSSLSASVGGRVTITCRASQSISNYLNWYQHKPGKAPELLIYGASSLQSGVPSRFSGSGSGTDFTLTISSLQPEDFATYYCQQSDTTPFTFGQGTKLEIK; < 0.01 µg/mL
2. ADI-18888 (antibody, V domains shown, full-length IgG from yeast; also called Antibody Number 243; Ab # 243) VH: QVQLVESGGGVVQPGRSLRLSCVASGFSFSMHGMHWVRQAPGKGLEWVTAIWYDGSNKYYADSVKGRFTISRDNSRNTLYLQMNSLRAEDTAVYYCARDHASTPYYMDVWGKGTTVTVSS VL: ETTLTQSPGTLSLSPGESATLSCRTSQRISSTYLAWYRQKPGQAPRLLMYGASSRATGIPDRFSGSGSGTDFTLTISSLEPEDFALYYCQQYGSFPWTFGQGTKLEIK; > 10 µg/mL
3. ADI-18950 (antibody, V domains shown, full-length IgG from yeast) VH: EVQLVESGPRLVRPSETLSLTCTVSGGFIKTSSYYWGWIRQPPGKGLEWIGSIYYAGTTYYNPSLQSRVTMSVDTSNNQFSLKLNSVTAADTAVYYCATAWTFDHWGQGTLVTVSS VL: EIVLTQSPATLSLSPGERATLSCRASQSLSNYLAWYQQKPGQAPRLLIYDASNRATGIPARFSGSGSGTDFTLTISSLEPEDFAVYYCQLRGHWPPTITFGQGTRLEIK; > 10 µg/mL
